# credit: patent US20210115124A1

- System: T1, human VEGF (hVEGF) (human, UniProt P15692 181-395)
- T1 construct: also called VEGF-A
- T1 sequence: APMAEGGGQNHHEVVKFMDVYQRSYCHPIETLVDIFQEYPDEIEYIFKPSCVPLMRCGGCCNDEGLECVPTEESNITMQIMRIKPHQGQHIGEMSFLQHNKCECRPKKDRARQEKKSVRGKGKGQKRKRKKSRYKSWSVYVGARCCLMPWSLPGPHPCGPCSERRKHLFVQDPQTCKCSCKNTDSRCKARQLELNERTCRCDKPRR
- Assay Comment: SPR
Assay Metric: fold increase in affinity compared to wild-type G6.31 (fold)
Only the number, expressed in fold, is required.

Briefly, fold increase in affinity compared to wild-type G6.31 measured for G6.31 LC-F83A (Fab, V domains shown, Fab) VH: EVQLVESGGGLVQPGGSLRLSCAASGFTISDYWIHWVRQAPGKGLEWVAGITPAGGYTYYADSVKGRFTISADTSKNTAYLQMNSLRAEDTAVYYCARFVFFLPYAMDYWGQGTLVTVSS VL: DIQMTQSPSSLSASVGDRVTITCRASQDVSTAVAWYQQKPGKAPKLLIYSASFLYSGVPSRFSGSGSGTDFTLTISSLQPEDAATYYCQQGYGNPFTFGQGTKVEIK : 3
